Target: BuChE from human serum (Homo sapiens, UniProt P06276)
Construct: BuChE from human serum (EC 3.1.1.8); purchased Sigma; host or cells: human serum (tissue-derived)
Sequence (P06276 29-602): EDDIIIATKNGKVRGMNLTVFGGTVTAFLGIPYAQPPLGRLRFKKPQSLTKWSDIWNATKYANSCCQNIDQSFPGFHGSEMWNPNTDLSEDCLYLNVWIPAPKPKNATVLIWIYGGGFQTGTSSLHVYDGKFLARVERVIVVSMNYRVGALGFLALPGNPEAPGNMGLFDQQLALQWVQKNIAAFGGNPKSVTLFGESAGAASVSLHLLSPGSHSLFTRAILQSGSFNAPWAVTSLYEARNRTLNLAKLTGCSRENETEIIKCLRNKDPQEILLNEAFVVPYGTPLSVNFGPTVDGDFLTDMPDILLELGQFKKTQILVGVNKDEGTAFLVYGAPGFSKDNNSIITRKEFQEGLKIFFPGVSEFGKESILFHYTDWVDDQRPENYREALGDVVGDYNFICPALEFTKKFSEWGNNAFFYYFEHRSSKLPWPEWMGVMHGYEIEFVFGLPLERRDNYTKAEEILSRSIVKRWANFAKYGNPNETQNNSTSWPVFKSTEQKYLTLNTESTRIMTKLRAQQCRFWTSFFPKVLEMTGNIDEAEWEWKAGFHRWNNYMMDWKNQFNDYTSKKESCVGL
Assay: In vitro BuChE inhibition assay (Ellman)
Format: biochemical
Conditions: 10 µM compound, read-out: BuChE percentage of inhibition at 10 µM
# Lookup of reported inhibition at 10 µM keyed by entry
Report the value in % with no unit label.

Nc1ccc2c(c1)c(OCc1ccc3ccccc3c1)nn2Cc1ccc2ccccc2c1 [Compound 28]
24

# input compound: Nc1ccc2c(c1)c(OCc1ccccc1)nn2Cc1ccccc1 [Compound 27, 5-amino-1-benzyl-3-(benzyloxy)indazole] ; wanted: its inhibition at 10 µM
21

Then what about the compound Nc1ccc2c(c1)c(OCc1ccc3ccccc3c1)nn2Cc1ccc(Cl)c(Cl)c1 [Compound 31] ?
30

Then what about the compound Nc1ccc2c(c1)c(OCc1cccc3ccccc13)nn2Cc1ccc(Cl)c(Cl)c1 [Compound 34] ?
32

Then what about the compound CN1CCN(C(=O)Nc2ccc3c(c2)c(OCc2ccccc2)nn3Cc2cccc(Cl)c2Cl)CC1 [Compound 11] ?
47
